target: HIF1A; assay: HeLa, 100 nM transfected, 24 h, mean of 3; conditions: ASO
Bases are written 5' to 3'; sugars and linkages follow in the same order, as letters with counts (s phosphorothioate, o phosphodiester; PS: all linkages phosphorothioate). C may stand for cytosine or 5-methylcytosine; the collection does not tell. l = locked nucleic acid (LNA); d = 2'-deoxy (DNA)
Below, each entry is listed alongside its reported caspase activation (% of PBS control).
// no unit string in output, number only

For orientation, consider the following solved cases.
- Biosequence: "TGGCAAGCATCCTGTA (sugars ldldddddddddlldl, PS)"
  Number: 281
- Biosequence: "TGGCAAGCATCCTGTA (sugars ldlllddddddlldll, PS)"
  Number: 437
- Biosequence: "TGGCAAGCATCCTGTA (sugars l1 d1 l1 d11 l2, PS)"
  Number: 135
- Biosequence: "GTTACTGCCTTCTTAC (sugars lldldddddddlddll, PS)"
  Number: 161
- Biosequence: "ACTGCCTTCTTAC (sugars ldllddddddldl, PS)"
  Number: 217

[in] Form field - read-out: caspase activation (% of PBS control); system: HIF1A; submitted item: GTTACTGCCTTCTTAC (sugars l3 d9 l2 d1 l1, PS)
[out] 202

* * *

target: HIF1A; test: HeLa, 100 nM transfected, 24 h, mean of 3; details: ASO
Bases are written 5' to 3'; sugars and linkages follow in the same order, as letters with counts (s phosphorothioate, o phosphodiester; PS: all linkages phosphorothioate). C may stand for cytosine or 5-methylcytosine; the collection does not tell. l = locked nucleic acid (LNA); d = 2'-deoxy (DNA)
Below, each entry is listed alongside its reported caspase activation (% of PBS control).

For orientation, consider the following solved cases.
- Biosequence: "GTTACTGCCTTCTTAC (sugars lldlddddddddlddl, PS)"
  Test System: "HIF1A"
  caspase activation (% of PBS control): 135
- Biosequence: "GTTACTGCCTTCTTAC (sugars ldldldddddddldll, PS)"
  Test System: "HIF1A"
  caspase activation (% of PBS control): 214
- Biosequence: "GTTACTGCCTTCTTAC (sugars l2 d10 l2 d1 l1, PS)"
  Test System: "HIF1A"
  caspase activation (% of PBS control): 151
- Biosequence: "CAAGCATCCTGTA (sugars l4 d8 l1, PS)"
  Test System: "HIF1A"
  caspase activation (% of PBS control): 194
- Biosequence: "GTTACTGCCTTCTTAC (sugars l2 d10 l1 d2 l1, PS)"
  Test System: "HIF1A"
  caspase activation (% of PBS control): 123

Turning now to a further record.
[in] Fill in the blank: the reported caspase activation (% of PBS control) of TGGCAAGCATCCTGTA (sugars l3 d1 l1 d8 l3, PS) is ____.
[out] 413

* * *

molecular target: HIF1A; test: HeLa, 100 nM transfected, 24 h, mean of 3; settings: ASO
Bases are written 5' to 3'; sugars and linkages follow in the same order, as letters with counts (s phosphorothioate, o phosphodiester; PS: all linkages phosphorothioate). C may stand for cytosine or 5-methylcytosine; the collection does not tell. l = locked nucleic acid (LNA); d = 2'-deoxy (DNA)
The label depends only on caspase activation (% of PBS control): label 1 if it is at least 400, label 0 if it is smaller.

Some solved cases for reference:
- Biosequence: "GTTACTGCCTTCTTAC (sugars l1 d11 l2 d1 l1, PS)"
  Discrete Label: "label 0"
- Biosequence: "GTTACTGCCTTCTTAC (sugars l1 d1 l3 d10 l1, PS)"
  Discrete Label: "label 0"
- Biosequence: "TGGCAAGCATCCTGTA (sugars lddldddddddlldll, PS)"
  Discrete Label: "label 0"
- Biosequence: "CAAGCATCCTGTA (sugars l1 d1 l2 d6 l3, PS)"
  Discrete Label: "label 0"
- Biosequence: "TGGCAAGCATCCTGTA (sugars l5 d6 l1 d3 l1, PS)"
  Discrete Label: "label 0"
- Biosequence: "TGGCAAGCATCCTGTA (sugars l3 d9 l2 d1 l1, PS)"
  Discrete Label: "label 1"
- Biosequence: "GGCAAGCATCCTG (sugars l2 d1 l1 d6 l3, PS)"
  Discrete Label: "label 1"
- Biosequence: "TGGCAAGCATCCTGTA (sugars ldldldddddddllll, PS)"
  Discrete Label: "label 0"
- Biosequence: "GCAAGCATCCTGT (sugars l1 d9 l1 d1 l1, PS)"
  Discrete Label: "label 0"
- Biosequence: "TACTGCCTTCTTA (sugars l4 d7 l2, PS)"
  Discrete Label: "label 1"

[in] Determine whether this sequence has caspase activation (% of PBS control) no lower than 400: CAAGCATCCTGTA (sugars l3 d7 l3, PS)
[out] label 1

[in] Determine whether this sequence has caspase activation (% of PBS control) no lower than 400: GTTACTGCCTTCT (sugars l3 d8 l2, PS)
[out] label 0

[in] Determine whether this sequence has caspase activation (% of PBS control) no lower than 400: TGGCAAGCATCCTGTA (sugars llldlddddddllddl, PS)
[out] label 0

[in] Determine whether this sequence has caspase activation (% of PBS control) no lower than 400: TGGCAAGCATCCTGTA (sugars llddlddddddddldl, PS)
[out] label 0

[in] Determine whether this sequence has caspase activation (% of PBS control) no lower than 400: GGCAAGCATCCTG (sugars l4 d6 l1 d1 l1, PS)
[out] label 1

[in] Determine whether this sequence has caspase activation (% of PBS control) no lower than 400: TGGCAAGCATCCTGTA (sugars l1 d1 l1 d8 l5, PS)
[out] label 1
